ASSAY REMARKS: Half life in 25% human serum at 100 uM incubated for 24 hrs at 37 degC by HPLC analysis
Assay type: ADME, cell-free
Non-standard residues stand in square brackets, D forms with d. Residues, ends and D or L forms follow the SMILES beside them. 2Nal = N[C@@H](Cc1ccc2ccccc2c1)C(=O)O; Bta = N[C@@H](Cc1csc2ccccc12)C(=O)O; Pen = CC(C)(S)[C@H](N)C(=O)O; Tle = CC(C)(C)[C@H](N)C(=O)O; Pip = O=C(O)[C@@H]1CCCCN1
ASSAY ENDPOINT: half-life at 100 µM

**Query** I have this molecule here, CC(=O)N[C@@H](CS)C(=O)N[C@H](CCCNC(=N)N)C(=O)N[C@@H](CCCNC(=N)N)C(=O)N[C@@H](CCCNC(=N)N)C(=O)N[C@@H](Cc1ccc2ccccc2c1)C(=O)N[C@@H](Cc1csc2ccccc12)C(=O)N1CCCC[C@H]1C(=O)N[C@H](C(=O)N[C@H](C(=O)N[C@@H](CCCNC(=N)N)C(=O)N[C@H](C(=O)O)C(C)(C)C)[C@@H](C)O)C(C)(C)S (Ac-C[dR]RR[2Nal][Bta][Pip][Pen]TR[Tle]-OH) , and I need its recorded half-life at 100 µM.
**Result** > 24 h
